target: UniProtKB P29274
Sequence (P29274 whole entry): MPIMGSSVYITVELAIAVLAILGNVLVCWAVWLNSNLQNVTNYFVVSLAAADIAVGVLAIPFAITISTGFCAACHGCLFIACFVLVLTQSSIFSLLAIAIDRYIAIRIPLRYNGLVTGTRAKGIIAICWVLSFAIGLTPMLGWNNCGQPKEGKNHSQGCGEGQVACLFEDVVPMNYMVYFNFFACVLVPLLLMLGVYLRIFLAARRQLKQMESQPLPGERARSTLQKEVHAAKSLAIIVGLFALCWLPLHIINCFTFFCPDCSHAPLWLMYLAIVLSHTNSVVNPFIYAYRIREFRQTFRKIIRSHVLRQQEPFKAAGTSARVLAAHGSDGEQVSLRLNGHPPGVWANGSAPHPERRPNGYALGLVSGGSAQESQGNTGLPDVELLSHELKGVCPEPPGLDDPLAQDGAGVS
pKi: −log10 of the molar value.
readout.type: pKi

Asked: Return reported pKi for target or system UniProtKB P29274, item C=C1CC[C@@H]2[C@](C)(CO)[C@H](O)CC[C@@]2(C)[C@@H]1C/C=C1/C(=O)OC[C@H]1O [Compound 1, Andrographolide] .
Given back: < 4.00
